Biological target: ERRα (Homo sapiens, UniProt P11474)
Sequence (P11474 1-423): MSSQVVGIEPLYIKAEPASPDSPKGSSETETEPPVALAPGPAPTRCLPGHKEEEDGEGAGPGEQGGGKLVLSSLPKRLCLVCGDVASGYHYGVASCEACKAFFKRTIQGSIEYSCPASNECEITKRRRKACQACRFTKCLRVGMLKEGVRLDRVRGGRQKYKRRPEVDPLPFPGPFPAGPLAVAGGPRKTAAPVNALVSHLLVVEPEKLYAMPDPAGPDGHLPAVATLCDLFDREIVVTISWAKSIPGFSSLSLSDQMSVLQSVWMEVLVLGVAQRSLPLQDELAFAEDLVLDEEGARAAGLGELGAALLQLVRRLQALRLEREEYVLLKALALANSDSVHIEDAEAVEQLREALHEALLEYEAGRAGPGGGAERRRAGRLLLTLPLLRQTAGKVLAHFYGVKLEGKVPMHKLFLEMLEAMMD
Assay: ERRE luciferase reporter assay in HEK293 cells transfected with pcDNA3.1 ERRα
Details: HEK293 cells transfected with ERRE reporter construct and pcDNA3.1 ERRα; compound for 24 hours; luciferase activity
pEC50: −log10 of the molar value.
Would you kindly list pEC50 for each of these compounds?

The compound Cc1ccc(-c2nnc(-c3ccco3)o2)cc1 on ERRα (Homo sapiens, UniProt P11474): pEC50 was > 6.00

The compound Cc1ccc(-c2nnc(-c3ccccn3)o2)cc1 on ERRα (Homo sapiens, UniProt P11474): pEC50 was > 6.00

The compound COc1ccc(-c2nnc(-c3cccc([N+](=O)[O-])c3)o2)cc1 on ERRα (Homo sapiens, UniProt P11474): pEC50 was 5.30 to 6.00

The compound O=[N+]([O-])c1cc(Br)ccc1-c1nnc(-c2ccccc2)s1 on ERRα (Homo sapiens, UniProt P11474): pEC50 was 5.30 to 6.00

The compound Cc1ccc(-c2nnc(-c3ccc(B(O)O)cc3)s2)cc1 on ERRα (Homo sapiens, UniProt P11474): pEC50 was > 6.00

The compound FC(F)(F)c1cccc(-c2nnc(-c3ccccc3)s2)c1 on ERRα (Homo sapiens, UniProt P11474): pEC50 was 5.30 to 6.00

The compound COc1ccc(-c2nnc(-c3ccco3)s2)cc1 on ERRα (Homo sapiens, UniProt P11474): pEC50 was > 6.00

The compound Cc1ccc(-c2nnc(-c3ccccc3Cl)s2)cc1 on ERRα (Homo sapiens, UniProt P11474): pEC50 was > 6.00

The compound Cc1ccc(-c2nnc(-c3ccc(C)o3)o2)cc1 on ERRα (Homo sapiens, UniProt P11474): pEC50 was > 6.00

The compound COc1ccc(-c2nnc(-c3ccc(N(C)C)cc3)o2)cc1 on ERRα (Homo sapiens, UniProt P11474): pEC50 was 5.30 to 6.00

----------
Molecular target: UniProt:P62508
Sequence (P62508 1-458): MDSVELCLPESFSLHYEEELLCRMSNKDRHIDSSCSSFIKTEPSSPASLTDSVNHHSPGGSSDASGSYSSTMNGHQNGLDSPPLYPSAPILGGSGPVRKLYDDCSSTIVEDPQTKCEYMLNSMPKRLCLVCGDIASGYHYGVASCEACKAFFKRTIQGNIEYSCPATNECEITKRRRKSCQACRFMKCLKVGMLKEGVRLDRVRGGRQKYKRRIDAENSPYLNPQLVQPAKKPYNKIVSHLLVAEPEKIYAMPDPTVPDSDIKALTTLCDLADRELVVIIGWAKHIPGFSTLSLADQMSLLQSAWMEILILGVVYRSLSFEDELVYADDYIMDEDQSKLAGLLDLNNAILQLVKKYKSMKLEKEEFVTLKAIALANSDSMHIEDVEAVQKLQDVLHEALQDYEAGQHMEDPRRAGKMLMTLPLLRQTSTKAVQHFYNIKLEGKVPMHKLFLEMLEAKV
Assay: ERRE luciferase reporter assay in HEK293 cells transfected with pcDNA3.1 ERRγ
Conditions: HEK293 cells transfected with ERRE reporter construct and pcDNA3.1 ERRγ; compound for 24 hours; luciferase activity
endpoint-label: EC50

According to the records, this compound Cc1ccc(-c2nnc(-c3cccc4ncccc34)s2)cc1 displays EC50 of < 1 µM

According to the records, this compound O=[N+]([O-])c1cccc(-c2nnc(-c3ccccc3)o2)c1 displays EC50 of 1 to 5 µM

According to the records, this compound Nc1cccc(-c2nnc(-c3ccccc3)o2)c1 displays EC50 of < 1 µM

According to the records, this compound Cc1ccc(-c2nnc(-c3cccs3)s2)cc1 displays EC50 of < 1 µM

According to the records, this compound Nc1ccc(-c2nnc(-c3ccccc3)o2)cc1 displays EC50 of < 1 µM

According to the records, this compound c1ccc(-c2nnc(-c3ccc4ccccc4n3)o2)cc1 displays EC50 of > 5 µM

According to the records, this compound COc1ccc(-c2nnc(-c3ccccc3)o2)c(N)c1 displays EC50 of < 1 µM

According to the records, this compound c1ccc(-c2nnc(-c3ccccc3)s2)cc1 displays EC50 of < 1 µM

According to the records, this compound Cc1cccc(-c2nnc(-c3ccccc3)o2)c1[N+](=O)[O-] displays EC50 of < 1 µM
